# Assay Summary: label from the status in PepcDB records;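 further: failed if final PepcDB status was selected cloned or expressed and not failed if soluble or beyond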

Residues	protein production
MRWVKAGELPMEAAYGATVSLPDRLIFIGGSNSSDRFSSVLSFSFDCMKDSGLICETLPPLPHAVDNMSATLLGDTLYVLGGNRNGIPSSSMFSLCLDNYSAGWTEVPFPGRPRVQPVCSSLLGKLYVFGGFTSGGDASVSTDGLCYHPESGQWQVVKAPLTTKGEPLTLTGGASVSYGDVLLICAGGVNRDIFEDAISARYQMVRESEYLLQPIEWYRFNDQLLAYNVRSGEWIRIGVPSPMLARAGSSLVVFGDILFYIGGELKPGVLEHHHHHH	failed
LRESKRFIEQVISHSPQLLYIFEPTTGSNIYLNGQSVDILGYTPEEIKARGVKFFLDVLHPDDLYLLERNLNYWQNAADGEVLTTEWRMKHKNGSWRWLRSRDVVFARDENHFPCKVLGTTQDITDSKLAELE	failed
MAQTKRFVIAGGGRVGKQTAENLVDQGHDVLLIESDEERVEALSDAYIGPVIHGDATRPSILQQADLAEADAIAALTDEPGTNLAICMEAQQYAPSIRTIARAETEADHEYDEVVDATLLPEYLGGDHAADILTGEDIRTLVYPTADLDIIKVTVAPSAPVAGRRLDEIALPSGSLLISTADRTELAGADTVLKAEEQYILAVETDVVDEVLKLMRG	failed

====

# Assay Summary: label from the status in PepcDB records
Assay Endpoint: protein production

Residues	Assay Endpoint	Value Measured
MLRQGAKHTACTGRRNDDDRTPKEQSMKIVVIGGTGLIGSNVVNRLRRDGHETVAASPGTGVNTITGEGLAQALDGAQVVVDVANSPSFEDQAVMAFFETSGRTLLAAEAAAGVTHHLALSVVGTDRLADSGYFRAKVAQEALIKASKVPYTILRATQFFEFIESIVNAGADGDTVRLSPALIQPIAADDVSAALADLAVGMPLNGTVEVAGPDRLPLDELARKFLAARGDRRQVVADVHARYFGSELDDRSLVAGDNPRVGSTRLMNWLSRSPAPQ	protein production	failed
MSKDEIKKPVVLIYCDTIEGTNIYLKKICEGLEEEGVPFQIQQVEKVEDSVEVLAQNASRNSNLGIGIGVLKNGDCALLQRRLPPNLPIQTLRGEKYDPNLYRNIGINAARLAKNLPLVFA	protein production	not failed
MADLFDGMKRRMDALIAERFGMKVNINGTDCIVVESDFLAELGPVEGNGKNVVVFSGNVIPRRGDRVVLRGSEFTVTRIRRFNGKPQLTLEENNGGKGA	protein production	not failed
MYRIIEAPNSGKYPFSHSLLIGKSCIIDTGSGEALAPLRVDCVLNTHWHEDHIAMNSIGRKVLAHPLDAEAIESYEEFRRRYGIGDSVRLFINFEFGQVDDVFEDGEQLEFEGVSVEVIHTPGHSAGHCCFVINNEAVFLGDIDLTSFGPWYGCLDCDVDDFVRSVKKMMREVERRDIEIAIPSHGRPVYGKEEIIGAMREYLKKIFERDKAIRELVRLGVDPVGKGIIYRKIPEPREIYLHFEKIMVEKHLTTSLDEFCLDLEHHHHHH	protein production	failed
MTASIFSGVIPALMTPCRQDRTPDFDALVRKGKELIADGMSAVVYCGSMGDWPLLTDEQRMEGVERLVKAGIPVIVGTGAVNTASAVAHAVHAQKVGAKGLMVIPRVLSRGSVIAAQKAHFKAILSAAPEIPAVIYNSPYYGFATRADLFFALRAEHKNLVGFKEFGGPADMRYAAENITSRDDEVTLMIGVDTAVVHGFVNCGATGAITGIGNVLPKEVIHLCKLSQAAAKGDADARARALELEQALAVLSSFDEGPDLVLYFKYMMVLKGDKEYTLHFNETDALTDSQRGYVEAQFKLFNSWYADWSKLPGAVQTCKAA	protein production	not failed
PNEKFCFEGFLPQKKGRMTKLKSLVDEHRTMVFYESPHRLLKTLTQFAEYFGPERQVSVSREISKIHEETVRGTLSELIEHFTATDPRGEIVIVLAGIDD	protein production	not failed
CVECRKPIGADSKEVHYKNRFWHDTCFRCAKCLHPLANETFVAKDNKILCNKCTTREDSPKCKGCFKAIVAGDQNVEYKGTVWHKDCF	protein production	not failed
MATSMTDIKGFNMISIEQEKELGNKFAVEIEKQQQPVNDPEVQRYVDKVGKRLLSGARAVEFDYVFKVVKDDSVNAFAIPGGRVYVHTGLLKAADNETELAGVLAHEINHAVARHGTRQMTQEYGYSLVLSLVLGDNPNMLAQLAGQLFGKAGMMSYSREYENQADFLGVETMYKAGYNPNGLTSFFQKLNAMDGGTQSNVARFFSTHPLTSERIQRVQAEIAKLPPQRYLTDETEFKKIKGRLKLEHHHHHH	protein production	not failed
RHQPEINQTPGEAQALFVWRDNQDHRDDIERHYLKMLTSARREVIIANAYFFPGYRLLHAMRNAARRGVRVKLIVQGEPDIPIVKFGAHLLYHYLVKGGVQIYEYRRRPLHGKVALADDHWATVGSSNLDPLSLSLNLEANLIIHDRVFNQTLRDNLNGLIARDCQRIDKTMLPKRNWWRLGVSVMAFHFLRHFPAWVGWLP	protein production	failed
MAIQFIVSNKYTAEVSKQLNDSQNWVLDSGIYYEDHNNHIVSSPINSATKPQNTREEWLWIPPHCQVVVCSTSSLKSFLGCKASEDLDRVFGDHPLWLDQLRPLSNLLENSLIDLLSRAPFEQSSKRNIQSMERGNPVMNWNVMQVEEEDTRGEQRVAASSSLSSSFDWNTFLRDRCGLSEEDVAYCFRKLSRFGRVSLSRLNEDSLLRMGINDPTVIAKLLIGITEEFS	protein production	failed
MERSALVTGGASGLGRAAALALKARGYRVVVLDLRREGEDLIYVEGDVTREEDVRRAVARAQEEAPLFAVVSAAGVGLAEKILGKEGPHGLESFRRVLEVNLLGTFNVLRLAAWAMRENPPDAEGQRGVIVNTASVAAFEGQIGQAAYAASKGGVVALTLPAARELAGWGIRVVTVAPGLFDTPLLQGLPEKAKASLAAQVPFPPRLGRPEEYAALVLHILENPMLNGEVVRLDGALRMAPR	protein production	not failed
MSQLEIRDLWASIDGETILKGVNLVVPKGEVHALMGPNGAGKSTLGKILAGDPEYTVERGEILLDGENILELSPDERARKGLFLAFQYPVEVPGVTIANFLRLALQAKLGREVGVAEFWTKVKKALELLDWDESYLSRYLNEGFSGGEKKRNEILQLLVLEPTYAVLDETDSGLDIDALKVVARGVNAMRGPNFGALVITHYQRILNYIQPDKVHVMMDGRVVATGGPELALELEAKGYEWLKEKVKEGA	protein production	not failed
MGVLRVGLCPGLTEEMIQLLRSHRIKTVVDLVSADLEEVAQKCGLSYKALVALRRVLLAQFSAFPVNGADLYEELKTSTAILSTGIGSLDKLLDAGLYTGEVTEIVGGPGSGKTQVCLCMAANVAHGLQQNVLYVDSNGGLTASRLLQLLQAKTQDEEEQAEALRRIQVVHAFDIFQMLDVLQELRGTVAQQVTGSSGTVKVVVVDSVTAVVSPLLGGQQREGLALMMQLARELKTLARDLGMAVVVTNHITRDRDSGRLKPALGRSWSFVPSTRILLDTIEGAGASGGRRMACLAKSSRQPTGFQEMVDIGTWGTSEQSATLQGDQT	protein production	failed

====

# Assay Summary: label from the status in PepcDB records
Assay Endpoint: protein production

Residues	Value Measured
MESVKTGKTNKVGKNTEMANTKANKETHFKQVSAITNIIRSVGGFFTKIAKRVRGLVKKHPKKSSAALVVLTHIACKKAKELDDKVQDKSKQAEKENQINWWKYSGLTIAASLLLAACSAGDTDKQIELEQEKKEAENARDRANKSGIELEQERQKTNKSGIELANSQIKAEQERQKTEQEKQKANKSAIELEQQKQKTINTQRDLIKEQKDFIKETEQNCQENHNQFFIKKLGIKGGIAIEVEAECKTPKPAKTNQTPIQPKHLPNSKQPHSQRGSKAQEFIAYLQKELEFLPYSQKAIAKQVNFYKPSSIAYLELDPRDFKVTEEWQKENLKIRSKAQAKMLEMRDLKPDPQAHLPTSQSLLFVQKIFADVNKEIEAVANTEKKAEKAGYGYSKRM	failed
MAPTLQGQWIKVGQKGGTGPGPRSSHGIAAVGDKLYSFGGELTPNKHIDKDLYVFDFNTQTWSIAQPKGDAPTVSCLGVRMVAVGTKIYIFGGRDENRNFENFRSYDTVTSEWTFLTKLDEVGGPEARTFHSMASDENHVYVFGGVSKGGTMNTPTRFRTIEAYNIADGKWAQLPDPGDNFEKRGGAGFAVVQGKIWVVYGFATSIVPGGKDDYESNAVQFYDPASKKWTEVETTGAKPSARSVFAHAVVGKYIIIFAGEVWPDLNGHYGPGTLSNEGYALDTETLVWEKLGEEGAPAIPRGWTAYTAATVDGKNGLLMHGGKLPTNERTDDLYFYAVNSA	failed
QAIHNDKSLLSPFSELNTDNRTKREESGSTFKEQKGGEFSKLLKQSINELNNTQEQSDKALADMATGQIKDLHQAAIAIGKAETSMKLMLEVRNKAISAYKELLRTQI	failed
